# experimental_system: Gal4 DNA binding domain fused to the LBD of LXRβ in HEK293 cells (Homo sapiens (Human), UniProt P55055)
# Sequence (P55055 222-460 limits assumed): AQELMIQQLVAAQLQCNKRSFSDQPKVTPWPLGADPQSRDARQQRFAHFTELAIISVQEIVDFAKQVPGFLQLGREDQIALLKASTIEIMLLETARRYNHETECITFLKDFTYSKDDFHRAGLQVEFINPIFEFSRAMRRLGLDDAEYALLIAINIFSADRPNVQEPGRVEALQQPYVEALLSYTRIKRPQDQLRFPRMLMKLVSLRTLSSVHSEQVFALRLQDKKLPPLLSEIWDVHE
# procedure_summary: cell-based
// values below are reported pEC50
pEC50 (log units): -log10 of the concentration in mol/L.

Solved cases below.
molecule	pEC50
CC(C)[C@H]1CN(c2ccc(C#N)c(S(C)(=O)=O)c2)CCN1Cc1ccc(C(F)(F)F)cc1	5.97
CC(C)[C@@H]1CN(c2ccc(F)c(S(C)(=O)=O)c2)CCN1c1nc2ccccc2o1	6.72

Item CC1(C)CCC(O)(CN2CCN(c3cccc(S(C)(=O)=O)c3)C[C@H]2c2ccccc2)CC1 has what recorded pEC50?
5.68

Queued: CC(C)[C@@H]1CN(c2ccc(F)c(S(C)(=O)=O)c2)CCN1c1nc(C(F)(F)F)c(C(C)(C)O)s1
6.73

Can you check CC(C)[C@@H]1CN(c2ccc(F)c(S(C)(=O)=O)c2)CCN1c1ncc([C@H](C)O)c(C(F)(F)F)n1 next?
6.93

Input CC(C)[C@H]1CN(c2ccc(CO)c(S(C)(=O)=O)c2)CCN1CC1CCC(O)(C(F)(F)F)CC1 (stereo partly shown)
7.52

Another: CC(C)[C@@H]1CN(c2ccc(F)c(S(C)(=O)=O)c2)CCN1c1nc2cccnc2s1
7.36

Moving on to the next molecule: Cc1ccccc1[C@@H]1CN(c2cccc(S(C)(=O)=O)c2)CCN1Cc1ccc(C(F)(F)F)nc1 (single isomer, unassigned)
5.12

Here is the next molecule: COC(=O)c1cnc(N2CCN(c3ccc(F)c(S(C)(=O)=O)c3)CC2C(C)(C)C)nc1C(F)(F)F (stereo not shown)
7.09

Also, CC(C)[C@@H]1CN(c2ccc(F)c(S(C)(=O)=O)c2)CCN1c1nc2ccc(F)cc2s1 please.
6.97

Same lookup for CC(C)[C@H]1CN(c2cccc(S(C)(=O)=O)c2)CCN1CC1CCC(C)(C)OC1 (stereo partly shown) , please.
6.23

Now give it for CC(C)(F)CC1CN(c2ccc(F)c(S(C)(=O)=O)c2)CCN1c1ccc(C(F)(F)F)cn1 (stereo not shown) too.
6.30

What do we get for COC(=O)c1cnc(N2CCN(c3ccc(F)c(S(C)(=O)=O)c3)C[C@H]2c2ccc(F)cc2)nc1C(F)(F)F ?
6.11
